assay_system: 5-hydroxytryptamine receptor 6 (Homo sapiens)
Sequence (P50406 whole entry): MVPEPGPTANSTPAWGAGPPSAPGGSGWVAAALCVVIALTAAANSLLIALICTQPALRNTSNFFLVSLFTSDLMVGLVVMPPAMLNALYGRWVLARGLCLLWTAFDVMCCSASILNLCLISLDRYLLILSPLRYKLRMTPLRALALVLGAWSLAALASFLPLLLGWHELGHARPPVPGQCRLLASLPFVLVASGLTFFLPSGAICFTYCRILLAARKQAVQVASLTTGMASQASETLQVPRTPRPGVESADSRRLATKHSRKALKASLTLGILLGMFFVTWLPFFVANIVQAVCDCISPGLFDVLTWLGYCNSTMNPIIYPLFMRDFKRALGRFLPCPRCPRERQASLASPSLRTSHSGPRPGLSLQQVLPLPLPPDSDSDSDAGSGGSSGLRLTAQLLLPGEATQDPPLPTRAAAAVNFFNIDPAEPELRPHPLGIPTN
protocol_notes: Displacement of [3H]-LSD from human full length 5HT6R expressed in HEK293 cells by radioligand binding assay
Type: cell-based
pKi: −log10 of the molar value.
The following molecules are shown together with reported pKi values.
measured_endpoint: pKi

chem_smiles=O=S1(=O)N(CCCCCCN2CCN(c3cccc(Cl)c3)CC2)c2cccc3c2N1CCC3 assay_system="5-hydroxytryptamine receptor 6 (Homo sapiens)" reading=5.77
chem_smiles=O=c1n(CCCCCCN2CCN(c3cccc4ccccc34)CC2)nc2ccccn12 assay_system="5-hydroxytryptamine receptor 6 (Homo sapiens)" reading=6.55
chem_smiles=O=c1n(CCCCCCN2CCN(c3cccc(C(F)(F)F)c3)CC2)nc2ccccn12 assay_system="5-hydroxytryptamine receptor 6 (Homo sapiens)" reading=6.39
chem_smiles=S=c1n(CCCCCCN2CCN(c3cccc(Cl)c3)CC2)c2cccc3c2n1CCC3 assay_system="5-hydroxytryptamine receptor 6 (Homo sapiens)" reading=6.24
chem_smiles=O=c1n(CCCCCCN2CCN(c3cccc(Cl)c3Cl)CC2)nc2ccccn12 assay_system="5-hydroxytryptamine receptor 6 (Homo sapiens)" reading=6.52
